test: qHTS profiling of inhibitors of Plasmodium falciparum (DD2) proliferation (acoustic dispense); settings: P. falciparum Dd2 in erythrocytes, SYBR Green DNA, 72 h; at 49.8 µM (top of the series) unless noted
experimental_readout: parasite growth, lower = inhibition (%)
Reply with just the number (in %).

CCCCCCCCCCOc1cc2c(=O)c(C(=O)OCC)c[nH]c2cc1OCC	1.27
Cn1cnc(=N)c2[nH]cnc21	0.26
CC(=NNC(=S)N1CCC1)c1ccccn1	-0.523
CC(C)N=C(N)N=C(N)Nc1ccc(Cl)cc1	-0.338
COc1ccc2nc3cc(Cl)ccc3c(Nc3cc(CN4CCCC4)c(O)c(CN4CCCC4)c3)c2n1	0.653
CS(=O)(=O)CCNCc1ccc(-c2ccc3ncnc(Nc4ccc(OCc5cccc(F)c5)c(Cl)c4)c3c2)o1	5.58
CO[C@@H]1C(N(C)C(=O)c2ccccc2)C[C@H]2O[C@]1(C)n1c3ccccc3c3c4c(c5c6ccccc6n2c5c31)C(=O)NC4=O (some centres undefined)	10.1

Would you kindly look at the next entry?
parasite growth, lower = inhibition measured on `CCS(=O)(=O)Nc1ccc2[nH]c(O)c(C(=Nc3ccc(CN4CCCCC4)cc3)c3ccccc3)c2c1` = -0.594

---

assay: qHTS profiling of inhibitors of Plasmodium falciparum (DD2) proliferation (acoustic dispense); conditions: P. falciparum Dd2 in erythrocytes, SYBR Green DNA, 72 h; at 49.8 µM (top of the series) unless noted
experimental_readout: parasite growth, lower = inhibition (%)
Reply with just the number (in %).

Field: example entries. Status: answers known.
C[C@H]1c2cccc(O)c2C(O)=C2C(=O)[C@]3(O)C(O)=C(C(N)=O)C(=O)[C@@H](N(C)C)[C@@H]3[C@@H](O)[C@@H]21	1.85
COC(=O)c1ccc2c(C(=Nc3ccc(N(C)C(=O)CN4CCN(C)CC4)cc3)c3ccccc3)c(O)[nH]c2c1	14.8

parasite growth, lower = inhibition measured on `CN(C)c1ccc2nc3ccc(=[N+](C)C)cc-3sc2c1` = 11.8

parasite growth, lower = inhibition measured on `Cn1c(=O)c(-c2c(Cl)cccc2Cl)cc2cnc(Nc3cccc(C(=O)O)c3)nc21` = -0.0499

parasite growth, lower = inhibition measured on `CC(C)Oc1cc(Nc2nc(N[C@@H](C)c3ccc(F)cn3)ncc2Cl)[nH]n1` = 3.28

parasite growth, lower = inhibition measured on `C[C@H]1[C@@H](OC(=O)CCC(=O)O)O[C@@H]2O[C@@]3(C)CC[C@@H]4[C@H](C)CC[C@@H]1[C@@]24OO3` = -0.775

parasite growth, lower = inhibition measured on `COCCn1c2c([n+](Cc3cnccn3)c1C)C(=O)c1ccccc1C2=O` = -0.378

---

# parasite growth, lower = inhibition per entry
test: qHTS profiling of inhibitors of Plasmodium falciparum (DD2) proliferation (acoustic dispense); details: P. falciparum Dd2 in erythrocytes, SYBR Green DNA, 72 h; at 49.8 µM (top of the series) unless noted
Reply with just the number (in %).

C=C[C@@H]1CN2CCC1C[C@@H]2C(O)c1ccnc2ccc(OC)cc12 (some centres not stated)	1.83
CN(C(=O)OC(C)(C)C)[C@@H](Cc1ccc(O[S+](=O)([O-])c2cccc3cnccc23)cc1)C(=O)N1CCN(C(=O)OCc2ccccc2)CC1	-0.325

parasite growth, lower = inhibition measured on `CN([C@@H](Cc1ccc(OS(=O)(=O)c2cccc3cnccc23)cc1)C(=O)N1CCN(c2ccccc2)CC1)S(=O)(=O)c1cccc2cnccc12` = 0.489

parasite growth, lower = inhibition measured on `CN[C@@H]1C[C@H]2O[C@@](C)([C@H]1OC)n1c3ccccc3c3c4c(c5c6ccccc6n2c5c31)C(=O)N[C@H]4O` = 0.898

parasite growth, lower = inhibition measured on `COc1ccc(-c2nc(N3CCOCC3)c3sc(CN(C)c4ncc(C(=O)NO)cn4)cc3n2)cn1` = 0.651
